# experiment.description: Metal chelating activity assessed as Fe2+-compound complex formation at 50 uM after 10 mins by UV-Vis spectroscopic method
Activity calls are given as the source filed them. No cut-off for these calls is given here.
measured.metric: Activity

compound.string	Activity
COc1cc(/C=C/C(=O)C(Cc2cn(CCCCNC(=O)CCC(=O)NCCCN3CCN(CCCNCCN[C@H]4CC[C@@]5(C)C(=CC[C@H]6[C@@H]7CC[C@H]([C@H](C)CCCC(C)C)[C@@]7(C)CC[C@@H]65)C4)CC3)nn2)C(=O)/C=C/c2ccc(O)c(OC)c2)ccc1O	inactive
COc1cc(/C=C/C(=O)C(Cc2cn(CCCCNC(=O)CCC(=O)NCCCN3CCN(CCCNC(=O)CCN4CCN(CCCN[C@H]5CC[C@@]6(C)C(=CC[C@H]7[C@@H]8CC[C@H]([C@H](C)CCCC(C)C)[C@@]8(C)CC[C@@H]76)C5)CC4)CC3)nn2)C(=O)/C=C/c2ccc(O)c(OC)c2)ccc1O	inactive
COc1cc(/C=C/C(=O)C(Cc2cn(CCCCC(=O)NCCCN3CCN(CCCNC(=O)CCN4CCN(CCCN[C@H]5CC[C@@]6(C)C(=CC[C@H]7[C@@H]8CC[C@H]([C@H](C)CCCC(C)C)[C@@]8(C)CC[C@@H]76)C5)CC4)CC3)nn2)C(=O)/C=C/c2ccc(O)c(OC)c2)ccc1O	inactive
COc1cc(/C=C/C(=O)C(Cc2cn(CCNC(=O)CCC(=O)NCCCN3CCN(CCCNCCN[C@H]4CC[C@@]5(C)C(=CC[C@H]6[C@@H]7CC[C@H]([C@H](C)CCCC(C)C)[C@@]7(C)CC[C@@H]65)C4)CC3)nn2)C(=O)/C=C/c2ccc(O)c(OC)c2)ccc1O	inactive
COc1cc(/C=C/C(=O)C(Cc2cn(CCNC(=O)CCC(=O)NCCCN3CCN(CCCNC(=O)CCN4CCN(CCCN[C@H]5CC[C@@]6(C)C(=CC[C@H]7[C@@H]8CC[C@H]([C@H](C)CCCC(C)C)[C@@]8(C)CC[C@@H]76)C5)CC4)CC3)nn2)C(=O)/C=C/c2ccc(O)c(OC)c2)ccc1O	inactive
COc1cc(/C=C/C(=O)C(Cc2cn(CCCCC(=O)NCCCN3CCN(CCCNCCN[C@H]4CC[C@@]5(C)C(=CC[C@H]6[C@@H]7CC[C@H]([C@H](C)CCCC(C)C)[C@@]7(C)CC[C@@H]65)C4)CC3)nn2)C(=O)/C=C/c2ccc(O)c(OC)c2)ccc1O	inactive
COc1cc(/C=C/C(=O)C(Cc2cn(CCC(=O)NCCCN3CCN(CCCNC(=O)CCN4CCN(CCCN[C@H]5CC[C@@]6(C)C(=CC[C@H]7[C@@H]8CC[C@H]([C@H](C)CCCC(C)C)[C@@]8(C)CC[C@@H]76)C5)CC4)CC3)nn2)C(=O)/C=C/c2ccc(O)c(OC)c2)ccc1O	inactive
COc1cc(/C=C/C(=O)C(Cc2cn(CCC(=O)NCCCN3CCN(CCCNC(=O)CCC(=O)NCCCN4CCN(CCCNCCN[C@H]5CC[C@@]6(C)C(=CC[C@H]7[C@@H]8CC[C@H]([C@H](C)CCCC(C)C)[C@@]8(C)CC[C@@H]76)C5)CC4)CC3)nn2)C(=O)/C=C/c2ccc(O)c(OC)c2)ccc1O	inactive
COc1cc(/C=C/C(=O)C(Cc2cn(CCC(=O)NCCCN3CCN(CCCNCCN[C@H]4CC[C@@]5(C)C(=CC[C@H]6[C@@H]7CC[C@H]([C@H](C)CCCC(C)C)[C@@]7(C)CC[C@@H]65)C4)CC3)nn2)C(=O)/C=C/c2ccc(O)c(OC)c2)ccc1O	inactive

Lab book: Activity of COc1cc(/C=C/C(=O)C(Cc2cn(CCCCC(=O)NCCCN3CCN(CCCNC(=O)CCC(=O)NCCCN4CCN(CCCNCCN[C@H]5CC[C@@]6(C)C(=CC[C@H]7[C@@H]8CC[C@H]([C@H](C)CCCC(C)C)[C@@]8(C)CC[C@@H]76)C5)CC4)CC3)nn2)C(=O)/C=C/c2ccc(O)c(OC)c2)ccc1O noted as inactive
